// provenance: patent US11225481B2

molecular target: BRD4(BD1) (Homo sapiens); construct: a BRD4(BD1) synthetic gene that includes a TEV cleavage site was purchased from LifeTechnology; assay: Isothermal Titration Calorimetry; settings: Isothermal Titration Calorimetry
Exercise: state measured pKd for each of the compounds provided.
One number for each entry, as −log10 of the molar value.

CCCCc1c(C)nc2nc(SCc3nc4c(c(=O)[nH]c(=O)n4CCCC)n3CC)nn2c1C [Compound 26b]
5.85

Moving on to another compound below.
## Task Determine from records and report pKd for CCn1cnc2c1c(=O)[nH]c(=O)n2Cc1ccc(Cl)cc1 [Compound 7a]
## Result 5.74

---

Target: ATAD2 (Homo sapiens, UniProt Q6PL18)
Construct: GST tagged bromodomain proteins were purchased from BPS Bioscience; purchased BPS Bioscience
Sequence (Q6PL18 980-1092 limits assumed): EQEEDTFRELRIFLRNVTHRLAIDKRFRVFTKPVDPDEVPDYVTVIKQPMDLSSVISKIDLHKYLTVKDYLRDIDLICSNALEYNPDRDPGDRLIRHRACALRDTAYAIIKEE
Experiment: HTRF bromodomain selectivity profile, non-BET control
Assay type: binding
Conditions: non-BET family member bromodomain control
Procedure: HTRF assays were performed in white 384 Well Small Volume™ HiBase Polystyrene Microplates (Greiner) with a total working volume of 20 μL. […] HTRF signals were measured, after a final incubation (overnight at room temperature), using a PHERAstar FS (BMG Labtech) with an excitation filter at 337 nm and fluorescence wavelength measurement at 620 and 665 nm, an integration delay of 60 μs and an integration time of 500 μs. […]
Task for the reader: assign each of the following molecules its reported IC50.

CCCCn1c(=O)[nH]c(=O)c2c1ncn2CC
> 100 µM

Could I get IC50 for every one of these entries?
1. CCn1cnc2c1c(=O)[nH]c(=O)n2Cc1ccc(Cl)cc1
2. CCc1cc(CC)n2nc(SCc3nc4c(c(=O)[nH]c(=O)n4Cc4ccc(Cl)cc4)n3CC)nc2n1 [Compound 26a]
3. CCn1c(CSc2nc3nc(C)cc(C)n3n2)nc2c1c(=O)[nH]c(=O)n2Cc1ccc(Cl)cc1 [Compound 25a]

## Result
["> 100 µM", "56.4 µM", "> 100 µM"]

---

biological target: BRD3(BD2) (Homo sapiens); construct: purchased BPS Bioscience; experiment: HTRF bromodomain selectivity profile; format: binding; conditions: Table 3 selectivity profile
Sequence (Q15059 306-415 limits assumed): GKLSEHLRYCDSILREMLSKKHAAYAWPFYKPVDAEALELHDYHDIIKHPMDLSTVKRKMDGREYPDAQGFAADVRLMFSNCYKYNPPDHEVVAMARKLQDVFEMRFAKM
REPORTED_ENDPOINT: log10 of IC50 (log10 of the value in µM)
Hello, just confirming the data are log10 of IC50 with units of µM.

Reference set, count: 4
CCCCn1c(=O)[nH]c(=O)c2c1ncn2CC
0.76
Cn1cnc2c1c(=O)[nH]c(=O)n2Cc1ccc(Cl)cc1
0.60
CCn1c(CSc2nc3nc(C)cc(C)n3n2)nc2c1c(=O)[nH]c(=O)n2Cc1ccc(Cl)cc1 [Compound 25a]
1.38
CCn1cnc2c1c(=O)[nH]c(=O)n2Cc1ccc(Cl)cc1
0.26

## Task Quickly give me recorded log10 of IC50 for CCc1cc(CC)n2nc(SCc3nc4c(c(=O)[nH]c(=O)n4Cc4ccc(Cl)cc4)n3CC)nc2n1 [Compound 26a]
## Result 0.32

---

target: BRD4(BD1) (Homo sapiens, UniProt O60885); construct: a BRD4(BD1) synthetic gene that includes a TEV cleavage site was purchased from LifeTechnology; made in house; experiment: HTRF assay on robot-synthesised focused library (Example 4 bis); assay type: binding; conditions: Table 2 bis; focused library without intermediary purification; read-out: HTRF (IC50, μM), effect on BRD4(BD1) activity
# note: boundary value 30 µM maps to label 0; IC50 below it maps to label 1

CCn1c(CSc2nc3ccc(C(=O)O)cc3o2)nc2c1c(=O)[nH]c(=O)n2Cc1ccc(Cl)cc1
label 1

## Task Consider CCCCn1c(=O)[nH]c(=O)c2c1nc(CSc1nc3ccc([NH2+][O-])cc3[nH]1)n2CC . Does its IC50 lie strictly below 30 µM?
## Result label 0

## Task Would you kindly verify if IC50 of CCn1c(CSc2nc3cc(C(=O)O)ccc3o2)nc2c1c(=O)[nH]c(=O)n2Cc1ccc(Cl)cc1 is strictly less than 30 µM?
## Result label 1

## Task For this molecule, is IC50 lower than 30 µM? CCn1c(COc2ccc(Nc3nc4ccccc4c(=O)[nH]3)cc2)nc2c1c(=O)[nH]c(=O)n2Cc1ccc(Cl)cc1
## Result label 1

## Task Threshold test, IC50 < 30 µM: CCCCn1c(=O)[nH]c(=O)c2c1nc(CSc1nc3nc(C)c(CC(=O)O)c(C)n3n1)n2CC
## Result label 0

## Task Field: below-cutoff. Rule: recorded IC50 strictly less than 30 µM. Subject: CCn1c(CSc2nc3cc(S(=O)(=O)N4CCOCC4)ccc3[nH]2)nc2c1c(=O)[nH]c(=O)n2Cc1ccc(Cl)cc1
## Result label 0

## Task Consider the molecule CCCCn1c(=O)[nH]c(=O)c2c1nc(CSc1nnc(-c3ccccc3)c(-c3ccccc3)n1)n2CC . Is its IC50 strictly less than 30 µM?
## Result label 1

## Task For this molecule, is IC50 lower than 30 µM? CCCCn1c(=O)[nH]c(=O)c2c1nc(COc1cn3cc(C(=O)O)ccc3n1)n2CC
## Result label 0

## Task Answer whether the molecule CCCCNS(=O)(=O)c1ccc2nc(SCc3nc4c(c(=O)[nH]c(=O)n4Cc4ccc(Cl)cc4)n3CC)[nH]c2c1 has IC50 strictly less than 30 µM
## Result label 1

## Task Consider CCn1c(COc2ccc(-n3[nH]c(C(=O)O)cc3=O)nn2)nc2c1c(=O)[nH]c(=O)n2Cc1ccc(Cl)cc1 . Does its IC50 lie strictly below 30 µM?
## Result label 1

## Task Please state whether IC50 is below 30 µM for CCn1c(COc2nnc(-c3ccccc3)c(-c3ccccc3)n2)nc2c1c(=O)[nH]c(=O)n2Cc1ccc(Cl)cc1
## Result label 1

## Task Determine if CCn1c(COc2nc3cc(C(=O)O)ccc3[nH]2)nc2c1c(=O)[nH]c(=O)n2Cc1ccc(Cl)cc1 shows IC50 strictly lower than 30 µM.
## Result label 0

## Task Field: below-cutoff. Rule: recorded IC50 strictly less than 30 µM. Subject: CCCCn1c(=O)[nH]c(=O)c2c1nc(CSc1nc3cc(C(=O)OC)ccc3o1)n2CC
## Result label 0

## Task Is it true that IC50 reported for CCCCn1c(=O)[nH]c(=O)c2c1nc(CSc1nc3cc(C(=O)OCC)ccc3n1CC)n2CC is less than 30 µM?
## Result label 1

## Task Hello, I'm reviewing records and need to know if IC50 of CCCCn1c(=O)[nH]c(=O)c2c1nc(COc1ccc(-n3ncc(C(=O)O)c3CC)nn1)n2CC is below 30 µM. Could you check?
## Result label 1
